target: RET (V804M) (Homo sapiens, UniProt P07949, V804M)
Sequence (P07949 29-1114 V804M): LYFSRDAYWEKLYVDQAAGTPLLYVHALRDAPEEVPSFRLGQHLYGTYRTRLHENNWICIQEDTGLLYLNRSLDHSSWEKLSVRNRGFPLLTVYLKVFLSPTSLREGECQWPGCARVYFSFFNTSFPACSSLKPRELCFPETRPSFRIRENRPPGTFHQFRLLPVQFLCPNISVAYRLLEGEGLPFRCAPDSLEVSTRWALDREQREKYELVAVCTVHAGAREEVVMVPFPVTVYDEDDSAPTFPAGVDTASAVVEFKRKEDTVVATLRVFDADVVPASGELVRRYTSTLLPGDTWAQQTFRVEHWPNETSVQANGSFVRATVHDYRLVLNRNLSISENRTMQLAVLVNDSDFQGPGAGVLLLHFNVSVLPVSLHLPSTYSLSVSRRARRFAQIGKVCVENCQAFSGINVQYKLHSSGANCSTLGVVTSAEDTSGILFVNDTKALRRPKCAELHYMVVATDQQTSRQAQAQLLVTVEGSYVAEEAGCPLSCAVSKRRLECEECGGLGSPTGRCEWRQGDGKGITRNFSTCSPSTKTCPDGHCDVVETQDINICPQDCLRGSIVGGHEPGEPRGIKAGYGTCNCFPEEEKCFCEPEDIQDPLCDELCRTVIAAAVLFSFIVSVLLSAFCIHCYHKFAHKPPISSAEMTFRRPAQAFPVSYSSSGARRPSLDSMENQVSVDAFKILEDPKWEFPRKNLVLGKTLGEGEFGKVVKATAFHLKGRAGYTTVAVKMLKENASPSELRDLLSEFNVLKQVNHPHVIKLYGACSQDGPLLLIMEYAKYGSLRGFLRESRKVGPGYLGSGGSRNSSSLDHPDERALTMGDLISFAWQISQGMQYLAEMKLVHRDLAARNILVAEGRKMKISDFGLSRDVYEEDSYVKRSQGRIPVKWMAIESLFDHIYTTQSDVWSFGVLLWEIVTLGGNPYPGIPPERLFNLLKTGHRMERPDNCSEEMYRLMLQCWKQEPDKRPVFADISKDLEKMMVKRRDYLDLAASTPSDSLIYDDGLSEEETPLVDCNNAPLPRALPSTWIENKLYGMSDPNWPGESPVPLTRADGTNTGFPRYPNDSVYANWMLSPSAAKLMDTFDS
assayProtocol: HTRF kinase activity test, RET V804M
testParameters: Table 3; read-out: RET Enzyme (V804M) IC50
Protocol: This test combined peptide substrates and a single proprietary monoclonal antibody with HTRF technology, which was a highly sensitive and stable technology for detecting molecular interactions of proteins. […] Based on this, the inhibitory effect was evaluated. […] m) reading the fluorescence signal values at 615 nm (Cryptate) and 665 nm (XL665) on the Envision 2104 plate reader. […] The inhibition rate % was calculated as follows: […] Ratio: generated from the measured fluorescence signal value […]
Kindly state IC50 for each of the entries shown.

Solved entries:
INSERT INTO measurements (compound, target, outcomemeasure, measurement) VALUES
  ('COc1ccc(CN2C3CC2CN(c2ccc(-c4cc(OC(F)F)cn5nc(N)c(C#N)c45)cn2)C3)cn1 [APS115]', 'RET (V804M) (Homo sapiens, UniProt P07949, V804M)', 'IC50', '8.8 nM'),
  ('COc1ccc(CN2C3CC2CN(c2cnc(-c4cc(OC[C@@H]5CN(C)CCO5)cn5nc(N)c(C#N)c45)cn2)C3)cn1 [APS107]', 'RET (V804M) (Homo sapiens, UniProt P07949, V804M)', 'IC50', '< 1 nM'),
  ('CCOCCOc1cc(-c2ccc(N3CC4CC(C3)N4Cc3ccc(OC)nc3)nc2)c2c(C#N)c(N)nn2c1 [APS109]', 'RET (V804M) (Homo sapiens, UniProt P07949, V804M)', 'IC50', '< 1 nM'),
  ('CCOc1cc(-c2ccc(N3CC4CC(C3)N4Cc3ccc(OC)nc3)nc2)c2c(C#N)c(F)nn2c1 [APS096]', 'RET (V804M) (Homo sapiens, UniProt P07949, V804M)', 'IC50', '186 nM'),
  ('COc1ccc(CN2C3CC2CN(c2ccc(-c4cc(OCC(C)(C)O)cn5nc(F)c(C#N)c45)cn2)C3)cn1 [APS090]', 'RET (V804M) (Homo sapiens, UniProt P07949, V804M)', 'IC50', '486 nM'),
  ('COc1ccc(CN2C3CC2CN(c2cnc(-c4cc(OC[C@@H]5CN(C)CCO5)cn5nc(F)c(C#N)c45)cn2)C3)cn1 [APS104]', 'RET (V804M) (Homo sapiens, UniProt P07949, V804M)', 'IC50', '14 nM');

Please turn your attention to the following entry.
Query: Fill in: IC50 of COCCOc1cc(-c2ccc(N3CC4CC(C3)N4Cc3ccc(OC)nc3)nc2)c2c(C#N)c(N)nn2c1 [APS097] is ___
Response: < 1 nM

###

target: Ret wt (Homo sapiens, UniProt P07949)
Construct: purchased Invitrogen PV3082
Sequence (P07949 29-1114): as the sequence (P07949 29-1114 V804M) above, with M776V counted along it
assayProtocol: HTRF kinase activity test, RET wild type
Assay type: biochemical
testParameters: Table 3; read-out: RET Enzyme (wild type) IC50
outcomeMeasure: IC50 (nM)
Give bare numbers, in nM.

INSERT INTO results (compound, measurement) VALUES
  ('COc1ccc(CN2C3CC2CN(c2cnc(-c4cc(OC[C@@H]5CN(C)CCO5)cn5nc(F)c(C#N)c45)cn2)C3)cn1 [APS104]', 6.9),
  ('CNc1nn2cc(-c3cnn(C)c3)cc(-c3ccc(N4CCN(Cc5ccc(OC)nc5)CC4)nc3)c2c1C#N [APS086]', 234),
  ('Cc1ccnc(CN2CCN(c3ccc(-c4cc(-c5cnn(C)c5)cn5nc(N)c(C#N)c45)cn3)CC2)c1 [APS025]', 1.4);

Would you mind giving IC50 for every compound in the list below?
1. Cn1cc(-c2cc(-c3ccc(N4CCN(Cc5c(F)cccc5F)CC4)nc3)c3c(C#N)c(N)nn3c2)cn1 [APS024]
2. COc1ccc(CN2C3CC2CN(c2ccc(-c4cc(OCC(F)F)cn5nc(N)c(C#N)c45)cn2)C3)cn1 [APS114]
3. COc1ccc(CN2CCN(c3ccc(-c4cc(-c5cnn(C)c5)cn5nc(O)c(C#N)c45)cn3)CC2)cn1 [APS083]
4. Cn1cc(-c2cc(-c3ccc(N4CC5CC(C4)N5Cc4ccccn4)nc3)c3c(C#N)c(N)nn3c2)cn1 [APS038]
5. Cc1nn2cc(-c3cnn(C)c3)cc(-c3ccc(N4CCN(C(=O)Cc5ccc(F)cn5)CC4)nc3)c2c1C#N [APS071]
6. Cc1cccnc1CN1CCN(c2ccc(-c3cc(-c4cnn(C)c4)cn4nc(N)c(C#N)c34)cn2)CC1 [APS022]

Response:
1. 1
2. 2
3. 212
4. 1
5. 64.6
6. 2.2

###

target: Ret wt (Homo sapiens)
Construct: purchased Invitrogen PV3082
assayProtocol: HTRF kinase activity test, RET wild type
Assay type: biochemical
testParameters: Table 3; read-out: RET Enzyme (wild type) IC50
Protocol: This test combined peptide substrates and a single proprietary monoclonal antibody with HTRF technology, which was a highly sensitive and stable technology for detecting molecular interactions of proteins. […] Based on this, the inhibitory effect was evaluated. […] The inhibition rate % was calculated as follows: Inhibition rate %=[1−(fluorescence signal value of test compound−fluorescence signal value of positive control)/(average ratio of negative control−average ratio of positive control)]*100% […]
outcomeMeasure: pIC50
Numbers only, as −log10 of the molar value.

Examples with answers:
INSERT INTO results (compound, target, measurement) VALUES
  ('Cn1cc(-c2cc(-c3ccc(N4CCN(Cc5cc(F)ccc5F)CC4)nc3)c3c(C#N)c(N)nn3c2)cn1 [APS020]', 'Ret wt (Homo sapiens)', 8.96),
  ('COc1ccc(CN2C3CC2CN(c2ccc(-c4cc(OCC(C)(C)O)cn5nc(N)c(C#N)c45)cn2)C3)cn1 [APS089]', 'Ret wt (Homo sapiens)', 8.74);

Quick request: pIC50 for each listed item, please.
1. CCOc1cc(-c2ccc(N3CC4CC(C3)N4Cc3ccc(OC)nc3)nc2)c2c(C#N)c(F)nn2c1 [APS096]
2. CCOc1cc(-c2cnc(N3CC4CC(C3)N4Cc3ccc(OC)nc3)cn2)c2c(C#N)c(N)nn2c1 [APS092]
3. COCCOc1cc(-c2ccc(N3CC4CC(C3)N4Cc3ccc(OC)nc3)nc2)c2c(C#N)c(F)nn2c1 [APS098]

Response:
6.91
8.37
6.84

For each listed entry, give its pIC50.
1. COc1ccc(CN2C3CC2CN(c2ccc(-c4cc(OC(F)F)cn5nc(N)c(C#N)c45)cn2)C3)cn1 [APS115]
2. COc1cccc(CN2CCN(c3ccc(-c4cc(-c5cnn(C)c5)cn5nc(N)c(C#N)c45)cn3)CC2)c1 [APS026]
3. COc1ccc(CN2C3CC2CN(c2ccc(-c4cc(OCC(C)(C)O)cn5nc(NCCO)c(C#N)c45)cn2)C3)cn1 [APS094]
4. Cn1cc(-c2cc(-c3ccc(N4CCN(Cc5ccccn5)CC4)nc3)c3c(C#N)c(N)nn3c2)cn1 [APS035]
5. CCOc1cc(-c2ccc(N3CC4CC(C3)N4Cc3cncc(Cl)c3)nc2)c2c(C#N)c(N)nn2c1 [APS112]

Response:
1: 7.34; 2: 8.85; 3: 6.03; 4: 8.77; 5: 7.72

Give me pIC50 for each of these compounds, listed below.
1. Cc1nn2cc(-c3cnn(C)c3)cc(-c3ccc(N4CCC(Cc5ccccn5)CC4)nc3)c2c1C#N [APS072]
2. COc1ccc(CN2C3CC2CN(c2ccc(-c4cc(OCC(C)(C)O)cn5nc(NC(C)=O)c(C#N)c45)cn2)C3)cn1 [APS093]
3. COCCOc1cc(-c2ccc(N3CC4CC(C3)N4Cc3ccc(OC)nc3)nc2)c2c(C#N)c(NC(C)=O)nn2c1 [APS103]
4. Cn1cc(-c2cc(-c3ccc(N4CCN(Cc5ccccc5Cl)CC4)nc3)c3c(C#N)c(N)nn3c2)cn1 [APS027]

Response:
7.11
5.54
6.58
8.62

###

Consider the following compounds; for each one, report its IC50.
target: Ret wt (Homo sapiens, UniProt P07949)
Construct: purchased Invitrogen PV3082
assayProtocol: HTRF kinase activity test, RET wild type
Format: biochemical
testParameters: Table 3; read-out: RET Enzyme (wild type) IC50

INSERT INTO measurements (smi, outcomemeasure, measurement) VALUES
  ('COCCOc1cc(-c2ccc(N3CC4CC(C3)N4Cc3ccc(OC)nc3)nc2)c2c(C#N)c(N)nn2c1', 'IC50', '< 1 nM'),
  ('COc1ccc(CN2C3CC2CN(c2ccc(-c4cc(OCCOC5CC5)cn5nc(N)c(C#N)c45)cn2)C3)cn1', 'IC50', '< 1 nM');

Query: Look up IC50 for this compound: COc1ccc(CN2C3CC2CN(c2ccc(-c4cc(OCCF)cn5nc(N)c(C#N)c45)cn2)C3)cn1
Response: < 1 nM
